Target: VEGFR2 (KDR) (Homo sapiens, UniProt P35968)
Sequence (P35968 806-1356): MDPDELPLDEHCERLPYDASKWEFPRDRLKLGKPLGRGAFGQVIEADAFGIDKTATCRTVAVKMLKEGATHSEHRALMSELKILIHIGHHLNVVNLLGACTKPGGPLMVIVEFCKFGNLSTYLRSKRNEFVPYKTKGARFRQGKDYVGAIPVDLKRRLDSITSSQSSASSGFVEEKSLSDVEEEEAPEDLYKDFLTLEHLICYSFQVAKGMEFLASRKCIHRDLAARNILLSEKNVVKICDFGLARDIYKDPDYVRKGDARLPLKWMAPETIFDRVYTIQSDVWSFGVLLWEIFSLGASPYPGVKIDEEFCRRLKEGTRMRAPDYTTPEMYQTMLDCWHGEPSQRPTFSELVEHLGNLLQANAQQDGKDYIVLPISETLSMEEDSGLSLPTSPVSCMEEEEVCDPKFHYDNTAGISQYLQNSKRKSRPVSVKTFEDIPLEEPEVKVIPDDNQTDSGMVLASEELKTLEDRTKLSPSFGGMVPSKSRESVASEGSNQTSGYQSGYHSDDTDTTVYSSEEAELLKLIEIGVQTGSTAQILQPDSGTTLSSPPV
Test: In Vitro Receptor Tyrosine Kinase Assay (VEGF Receptor KDR)
Details: recombinant GST-VEGFR2 806-1356, DELFIA assay, ATP 0.6 uM, enzyme 5 nM; read-out: VEGFR_IC50_UM
observable: log10 IC50 (log10 of the value in µM)
In our notation, the value equals log10 of IC50 in µM.

Known results for compounds:
>>> recorded_result("CC(=O)N1CC(NC(=O)Nc2ccc(Oc3ccnc4cc(-c5ccc(CN6CCC(NC(=O)OC(C)(C)C)CC6)cn5)sc34)c(F)c2)C1")
-0.55
>>> recorded_result("CN1CCN(Cc2ccc(-c3cc4nccc(Oc5ccc(NC(=O)NC6CN(C(=O)OC(C)(C)C)C6)cc5F)c4s3)nc2)CC1")
-1.46
>>> recorded_result("CN1CCN(Cc2ccc(-c3cc4nccc(Oc5ccc(NC(=O)NC6CN(C)C6)cc5F)c4s3)nc2)CC1")
-0.01
>>> recorded_result("COCCN(Cc1ccc(-c2cc3nccc(Oc4ccc(NC(=O)NC5COC5)c(F)c4F)c3s2)nc1)C(C)=O")
-1.96
>>> recorded_result("CNC1CCN(Cc2ccc(-c3cc4nccc(Oc5ccc(NC(=O)NC6CN(C(C)=O)C6)cc5F)c4s3)nc2)CC1")
-1.15

For record CN1CCN(Cc2ccc(-c3cc4nccc(Oc5ccc(NC(=O)NC6CN(C(=O)Cc7ccccc7)C6)cc5F)c4s3)nc2)CC1 the listed log10 IC50 is -1.24

Entry CC(=O)N1CC(NC(=O)Nc2ccc(Oc3ccnc4cc(-c5ccc(CN6CCOC6=O)cn5)sc34)c(F)c2)C1 ; log10 IC50 = -1.02

Quick note, log10 IC50 for CC(=O)N1CC(NC(=O)Nc2ccc(Oc3ccnc4cc(-c5ccc(CN6CCN(C)CC6)cn5)sc34)c(F)c2)C1 landed at -1.00

Per the records, this compound ( CCNC(=O)N(CCOC)Cc1ccc(-c2cc3nccc(Oc4ccc(NC(=O)NC5CN(C(=O)NCC)C5)cc4F)c3s2)nc1 ) has log10 IC50 equal to -0.23

COCCN(Cc1ccc(-c2cc3nccc(Oc4ccc(Nc5nc6cc(Cl)ccc6[nH]5)cc4F)c3s2)nc1)C(=O)CO yielded log10 IC50 of -1.64

For this compound ( COCCN(Cc1ccc(-c2cc3nccc(Oc4ccc(NC(=O)NC5COC5)c(F)c4F)c3s2)nc1)C(=O)OC(C)(C)C ), measured log10 IC50 is -1.51

----------
Molecular target: VEGFR2 (KDR) (Homo sapiens, UniProt P35968)
Test: In Vitro Receptor Tyrosine Kinase Assay (VEGF Receptor KDR)
Settings: recombinant GST-VEGFR2 806-1356, DELFIA assay, ATP 0.6 uM, enzyme 5 nM; read-out: VEGFR_IC50_UM
The reader will find reported IC50 values listed item by item below.
# number only, unit nM dropped from output

Below, 6 molecules whose answers are already recorded.
>>> recorded_result("CC(=O)N1CC(NC(=O)Nc2ccc(Oc3ccnc4cc(-c5ccc(CN6CCC(N)CC6)cn5)sc34)c(F)c2)C1")
78
>>> recorded_result("CC(C)(C)OC(=O)N1CC(NC(=O)Nc2ccc(Oc3ccnc4cc(-c5ccc(CN6CCOC6=O)cn5)sc34)c(F)c2)C1")
59
>>> recorded_result("CCOC(=O)C1CCCN(Cc2ccc(-c3cc4nccc(Oc5ccc(NC(=O)NC6COC6)cc5F)c4s3)nc2)C1 (stereo not shown)")
523
>>> recorded_result("COCCN(Cc1ccc(-c2cc3nccc(Oc4ccc(NC(=O)NC5CN(C(C)=O)C5)cc4F)c3s2)nc1)C(C)=O")
75
>>> recorded_result("CCNC(=O)NC1CCN(Cc2ccc(-c3cc4nccc(Oc5ccc(NC(=O)NC6CN(C(C)=O)C6)cc5F)c4s3)nc2)CC1")
157
>>> recorded_result("COCCN(Cc1ccc(-c2cc3nccc(Oc4ccc(Nc5nc6cc(Cl)ccc6[nH]5)cc4F)c3s2)nc1)C(C)=O")
31

Record COCCN(Cc1ccc(-c2cc3nccc(Oc4ccc(NC(=O)NC5COC5)cc4F)c3s2)nc1)C(=O)OC(C)(C)C ; system VEGFR2 (KDR) (Homo sapiens, UniProt P35968); IC50 = 197

Observed IC50 on VEGFR2 (KDR) (Homo sapiens, UniProt P35968), entry CC(=O)N1CC(NC(=O)Nc2ccc(Oc3ccnc4cc(-c5ccc(CN6CC(NC(=O)OC(C)(C)C)C6)cn5)sc34)c(F)c2)C1 , equals 137

The reported VEGFR2 (KDR) (Homo sapiens, UniProt P35968) IC50 of CC(=O)N1CC(NC(=O)Nc2ccc(Oc3ccnc4cc(-c5ccc(CN6CCC(NC(=O)CO)CC6)cn5)sc34)c(F)c2)C1 is 61

Item Cc1ccc(S(=O)(=O)N2CC(NC(=O)Nc3ccc(Oc4ccnc5cc(-c6ccc(CN7CCN(C)CC7)cn6)sc45)c(F)c3)C2)cc1 ; assay system VEGFR2 (KDR) (Homo sapiens, UniProt P35968); IC50 reported as 10

----------
Target: VEGFR2 (KDR) (Homo sapiens, UniProt P35968)
Experiment: In Vitro Receptor Tyrosine Kinase Assay (VEGF Receptor KDR)
Conditions: recombinant GST-VEGFR2 806-1356, DELFIA assay, ATP 0.6 uM, enzyme 5 nM; read-out: VEGFR_IC50_UM
observable: pIC50
Expect pIC50 as a plain number equal to -log10 of the molar concentration.

Below, 3 molecules whose answers are already recorded.
>>> recorded_result("CC(=O)N1CC(NC(=O)Nc2ccc(Oc3ccnc4cc(-c5ccc(CN6CC(N)C6)cn5)sc34)c(F)c2)C1 [Compound 46]")
6.89
>>> recorded_result("O=C(CO)N1CCN(Cc2ccc(-c3cc4nccc(Oc5ccc(Nc6nc7cc(Cl)ccc7[nH]6)cc5F)c4s3)nc2)CC1 [Compound 61]")
7.25
>>> recorded_result("COCCN(Cc1ccc(-c2cc3nccc(Oc4ccc(NC(=O)NC5COC5)cc4F)c3s2)nc1)C(C)=O [Compound 106]")
7.92

So the reported pIC50 for CC(=O)N1CC(NC(=O)Nc2ccc(Oc3ccnc4cc(-c5ccc(CN6CCN(C(=O)CO)CC6)cn5)sc34)c(F)c2)C1 [Compound 47-A] , on VEGFR2 (KDR) (Homo sapiens, UniProt P35968), turned out to be 7.17

// assay VEGFR2 (KDR) (Homo sapiens, UniProt P35968), entry O=C(Nc1ccc(Oc2ccnc3cc(-c4ccc(CN5CCOC5=O)cn4)sc23)c(F)c1)NC1COC1 [Compound 105] , pIC50 value = 7.60

Measured on VEGFR2 (KDR) (Homo sapiens, UniProt P35968), O=C(Nc1ccc(Oc2ccnc3cc(-c4ccc(CN5CCN(C(=O)CO)CC5)cn4)sc23)c(F)c1)NC1COC1 [Compound 88] has a documented pIC50 of 7.38

Simply: CN(C)[C@H]1CCN(C(=O)c2cc3nccc(Oc4ccc(NC(=O)NC5COC5)cc4F)c3s2)C1 [Compound 107] , VEGFR2 (KDR) (Homo sapiens, UniProt P35968), pIC50 = 7.25

Measured pIC50 for this entry CC(C)(C)OC(=O)N1CC(NC(=O)Nc2ccc(Oc3ccnc4cc(-c5ccc(CN6CCCC6=O)cn5)sc34)c(F)c2)C1 [Compound 110] on VEGFR2 (KDR) (Homo sapiens, UniProt P35968): 7.77

Here CN1CCN(Cc2ccc(-c3cc4nccc(Oc5ccc(Nc6nc7cc(Cl)ccc7[nH]6)cc5F)c4s3)nc2)CC1 [Compound 62] was tested on VEGFR2 (KDR) (Homo sapiens, UniProt P35968), and its pIC50 came to 7.36

Record O=C(Nc1ccc(Oc2ccnc3cc(-c4ccc(CN5CCCC5=O)cn4)sc23)c(F)c1)NC1COC1 [Compound 93] ; system VEGFR2 (KDR) (Homo sapiens, UniProt P35968); pIC50 = 8.05

----------
Target: VEGFR2 (KDR) (Homo sapiens, UniProt P35968)
Assay: In Vitro Receptor Tyrosine Kinase Assay (VEGF Receptor KDR)
Conditions: recombinant GST-VEGFR2 806-1356, DELFIA assay, ATP 0.6 uM, enzyme 5 nM; read-out: VEGFR_IC50_UM
observable: IC50 (nM)
Supply the numeric figure in nM, leaving out any unit text.

>>> recorded_result("CC(=O)N1CC(NC(=O)Nc2ccc(Oc3ccnc4cc(-c5ccc(CN6CC(NC(=O)CO)C6)cn5)sc34)c(F)c2)C1 [Compound 48]")
62

COCCNCc1ccc(-c2cc3nccc(Oc4ccc(Nc5nc6cc(Cl)ccc6[nH]5)cc4F)c3s2)nc1 [Compound 63] tested on VEGFR2 (KDR) (Homo sapiens, UniProt P35968) gave IC50: 268

Summary: COCCN(Cc1ccc(-c2cc3nccc(Oc4ccc(NC(=O)NC5CN(C(=O)OC(C)(C)C)C5)cc4F)c3s2)nc1)C(=O)OC(C)(C)C [Compound 67] , VEGFR2 (KDR) (Homo sapiens, UniProt P35968), IC50 = 57

Form field IC50 for item CN1CCN(Cc2ccc(-c3cc4nccc(Oc5ccc(NC(=O)NC6CN(S(C)(=O)=O)C6)cc5F)c4s3)nc2)CC1 [Compound 54] on VEGFR2 (KDR) (Homo sapiens, UniProt P35968): 36

The recorded IC50 with VEGFR2 (KDR) (Homo sapiens, UniProt P35968) for CC(=O)N1CC(NC(=O)Nc2ccc(Oc3ccnc4cc(-c5ccc(CN6CCC(N(C)C(=O)CO)CC6)cn5)sc34)c(F)c2)C1 [Compound 47] was 32

Tested on VEGFR2 (KDR) (Homo sapiens, UniProt P35968): CC(=O)N1CC(NC(=O)Nc2ccc(Oc3ccnc4cc(-c5ccc(CN6CCCC6=O)cn5)sc34)c(F)c2)C1 [Compound 112] . Observed IC50: 37
